- Test system: NCI-H226
- PROTOCOL_DESCRIPTION: Growth inhibition of human NCI-H226 cells assessed as cell growth at 10 uM incubated for 48 hrs by sulforhodamine B assay relative to control
- Format: functional
- CONDITION_SET: NCI-H226, 48 h, read-out: Activity
Decide by growth at 10 µM: equal to or exceeding 40% means Fulfilled, less means Not fulfilled.

smiles_code=COc1cc2cc(Oc3ccc(NC(=O)Nc4ccc(C)cc4)cc3)c(C)nc2cc1OC group_label=Fulfilled

-- ask Could you verify whether the entry COc1cc2cc(Oc3ccc(NC(=O)Nc4cccc(C(F)(F)F)c4)cc3)c(C)nc2cc1OC shows growth at 10 µM of no less than 40%?
-- reply Not fulfilled

-- ask Also check COc1cc2cc(Oc3ccc(NC(=O)Nc4cc(C(F)(F)F)cc(C(F)(F)F)c4)cc3)c(C)nc2cc1OC
-- reply Not fulfilled

-- ask Also check COc1cc2cc(Sc3ccc(NC(=O)Nc4ccc(Cl)c(Cl)c4)cc3)c(C)nc2cc1OC
-- reply Fulfilled
